- System: NCI-H196 complex spheroids with HUVEC/MSC, growth % T/C
- test.description: Anticancer human tumor NCI-H196 cell line growth inhibition [Asc]; active means viability on the fitted dose curve at most 10% of control; inactive means the rest;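 further: spheroids exposed to compound for 7 days before measurement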
- applied.conditions: second compound 0.1 µM; first compound 3.16 µM
// classify into 1.0 for active, 0.0 for inactive

Q: Recorded test call requested for C=C(F)C(=O)N1CCN(c2nc(OCC3CCCN3C)nc3c2CCN(c2cccc4cccc(Cl)c24)C3)CC1CC#N (configuration not stated) + Cc1c(S(C)(=O)=O)c(-c2cc(F)cc(N3CCN(c4ccc(NS(=O)(=O)c5ccc(NC(CCN6CCC(C(=O)OCCCP(=O)(O)O)CC6)CSc6ccccc6)c(S(=O)(=O)C(F)(F)F)c5)cc4)CC3)c2)c(-c2ccc(Cl)cc2)n1C(C)C
Ans: 0.0

Q: Recorded test call requested for O=C(c1cc(Cc2n[nH]c(=O)c3ccccc23)ccc1F)N1CCN(C(=O)C2CC2)CC1 + Cc1c(S(C)(=O)=O)c(-c2cc(F)cc(N3CCN(c4ccc(NS(=O)(=O)c5ccc(NC(CCN6CCC(C(=O)OCCCP(=O)(O)O)CC6)CSc6ccccc6)c(S(=O)(=O)C(F)(F)F)c5)cc4)CC3)c2)c(-c2ccc(Cl)cc2)n1C(C)C
Ans: 0.0

Q: Recorded test call requested for C#Cc1c(F)ccc2cc(O)cc(-c3ncc4c(N5CC6CCC(C5)N6)nc(OCC56CCCN5CC(F)C6)nc4c3F)c12 (configuration not stated) + Cc1c(S(C)(=O)=O)c(-c2cc(F)cc(N3CCN(c4ccc(NS(=O)(=O)c5ccc(NC(CCN6CCC(C(=O)OCCCP(=O)(O)O)CC6)CSc6ccccc6)c(S(=O)(=O)C(F)(F)F)c5)cc4)CC3)c2)c(-c2ccc(Cl)cc2)n1C(C)C
Ans: 0.0

Q: Recorded test call requested for C=CC(=O)N1CCN(c2nc(=O)n(-c3c(C)ccnc3C(C)C)c3nc(-c4c(O)cccc4F)c(F)cc23)C(C)C1 (configuration not stated) + CNC(C)C(=O)NC1CN(S(=O)(=O)c2cccc(S(=O)(=O)N3CCC4CCC(C(=O)NC(c5ccccc5)c5ccccc5)N4C(=O)C(NC(=O)C(C)NC)C3)c2)CCC2CCC(C(=O)NC(c3ccccc3)c3ccccc3)N2C1=O
Ans: 1.0

Q: Recorded test call requested for C#Cc1c(F)ccc2cc(O)cc(-c3ncc4c(N5CC6CCC(C5)N6)nc(OCC56CCCN5CC(F)C6)nc4c3F)c12 (configuration not stated) + CNC(C)C(=O)NC1CN(S(=O)(=O)c2cccc(S(=O)(=O)N3CCC4CCC(C(=O)NC(c5ccccc5)c5ccccc5)N4C(=O)C(NC(=O)C(C)NC)C3)c2)CCC2CCC(C(=O)NC(c3ccccc3)c3ccccc3)N2C1=O
Ans: 1.0

Q: Recorded test call requested for C=CC(=O)N1CCN(c2nc(=O)n(-c3c(C)ccnc3C(C)C)c3nc(-c4c(O)cccc4F)c(F)cc23)C(C)C1 (configuration not stated) + Cc1c(S(C)(=O)=O)c(-c2cc(F)cc(N3CCN(c4ccc(NS(=O)(=O)c5ccc(NC(CCN6CCC(C(=O)OCCCP(=O)(O)O)CC6)CSc6ccccc6)c(S(=O)(=O)C(F)(F)F)c5)cc4)CC3)c2)c(-c2ccc(Cl)cc2)n1C(C)C
Ans: 0.0

Q: Recorded test call requested for C=C(F)C(=O)N1CCN(c2nc(OCC3CCCN3C)nc3c2CCN(c2cccc4cccc(Cl)c24)C3)CC1CC#N (configuration not stated) + CNC(C)C(=O)NC1CN(S(=O)(=O)c2cccc(S(=O)(=O)N3CCC4CCC(C(=O)NC(c5ccccc5)c5ccccc5)N4C(=O)C(NC(=O)C(C)NC)C3)c2)CCC2CCC(C(=O)NC(c3ccccc3)c3ccccc3)N2C1=O
Ans: 1.0

* * *

- System: NCI-H196 complex spheroids with HUVEC/MSC, growth % T/C
- test.description: Anticancer human tumor NCI-H196 cell line growth inhibition [Asc]; active = viability on the fitted dose curve at most 10% of control; inactive = the rest;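 further: spheroids exposed to compound for 7 days before measurement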
- applied.conditions: second compound 3 µM; first compound 0.0316 µM
- Excerpt: Multicellular complex tumor spheroid response to apoptosis pathway targeting inhibitors Alrizomadlin, Pelcitoclax, and Dasminapant in combination with a variety of drugs and investigational agents in selected tumor cell lines […] Compounds. […] If the clinical Cmax for an agent had not been determined, the highest concentration tested was 10 microM. […]
// classify into active, inactive

Q: Recorded test call requested for COc1c(OCCCN2CCOCC2)ccc2c3n(c(=NC(=O)c4cnc(N)nc4)nc12)CCN3 + CCN1C(C(=O)NC23CCC(C(=O)O)(CC2)CC3)C(c2cccc(Cl)c2F)C2(C(=O)Nc3cc(Cl)ccc32)C12CCCCC2
Ans: inactive

Q: Recorded test call requested for C=C(F)C(=O)N1CCN(c2nc(OCC3CCCN3C)nc3c2CCN(c2cccc4cccc(Cl)c24)C3)CC1CC#N (stereo unspecified) + CCN1C(C(=O)NC23CCC(C(=O)O)(CC2)CC3)C(c2cccc(Cl)c2F)C2(C(=O)Nc3cc(Cl)ccc32)C12CCCCC2
Ans: inactive

Q: Recorded test call requested for O=C(c1cc(Cc2n[nH]c(=O)c3ccccc23)ccc1F)N1CCN(C(=O)C2CC2)CC1 + CCN1C(C(=O)NC23CCC(C(=O)O)(CC2)CC3)C(c2cccc(Cl)c2F)C2(C(=O)Nc3cc(Cl)ccc32)C12CCCCC2
Ans: inactive

Q: Recorded test call requested for NC1CCC(NC2CC2c2ccccc2)CC1 (stereo unspecified) + CCN1C(C(=O)NC23CCC(C(=O)O)(CC2)CC3)C(c2cccc(Cl)c2F)C2(C(=O)Nc3cc(Cl)ccc32)C12CCCCC2
Ans: inactive

Q: Recorded test call requested for CNC(C)C(=O)NC1CN(S(=O)(=O)c2cccc(S(=O)(=O)N3CCC4CCC(C(=O)NC(c5ccccc5)c5ccccc5)N4C(=O)C(NC(=O)C(C)NC)C3)c2)CCC2CCC(C(=O)NC(c3ccccc3)c3ccccc3)N2C1=O (stereo unspecified) + CCN1C(C(=O)NC23CCC(C(=O)O)(CC2)CC3)C(c2cccc(Cl)c2F)C2(C(=O)Nc3cc(Cl)ccc32)C12CCCCC2
Ans: active

Q: Recorded test call requested for CCN1CCN(Cc2ccc(Nc3ncc(F)c(-c4cc(F)c5nc(C)n(C(C)C)c5c4)n3)nc2)CC1 + CCN1C(C(=O)NC23CCC(C(=O)O)(CC2)CC3)C(c2cccc(Cl)c2F)C2(C(=O)Nc3cc(Cl)ccc32)C12CCCCC2
Ans: inactive

* * *

- System: NCI-H196 complex spheroids with HUVEC/MSC, growth % T/C
- test.description: Anticancer human tumor NCI-H196 cell line growth inhibition [Asc];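 further: spheroids exposed to compound for 7 days before measurement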;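 on viability, T/C: 100% = DMSO vehicle control wells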
- applied.conditions: second compound 0.949 µM; first compound 0.0316 µM; stronger effect = lower value
- Source text: Multicellular complex tumor spheroid response to apoptosis pathway targeting inhibitors Alrizomadlin, Pelcitoclax, and Dasminapant in combination with a variety of drugs and investigational agents in selected tumor cell lines […] Compounds. […] If the clinical Cmax for an agent had not been determined, the highest concentration tested was 10 microM. […]
Would you kindly list viability, T/C for each of these molecules?

Q: Which viability, T/C is reported for this molecule? CNC(C)C(=O)NC1CN(S(=O)(=O)c2cccc(S(=O)(=O)N3CCC4CCC(C(=O)NC(c5ccccc5)c5ccccc5)N4C(=O)C(NC(=O)C(C)NC)C3)c2)CCC2CCC(C(=O)NC(c3ccccc3)c3ccccc3)N2C1=O (configuration not stated) + CCN1C(C(=O)NC23CCC(C(=O)O)(CC2)CC3)C(c2cccc(Cl)c2F)C2(C(=O)Nc3cc(Cl)ccc32)C12CCCCC2
Ans: 6.82%

Q: Which viability, T/C is reported for this molecule? O=C(c1cc(Cc2n[nH]c(=O)c3ccccc23)ccc1F)N1CCN(C(=O)C2CC2)CC1 + CCN1C(C(=O)NC23CCC(C(=O)O)(CC2)CC3)C(c2cccc(Cl)c2F)C2(C(=O)Nc3cc(Cl)ccc32)C12CCCCC2
Ans: 120%

* * *

Would you kindly list IC50 for each of these molecules?
- Test system: NCI-H196 complex spheroids with HUVEC/MSC, growth % T/C
- test.description: Anticancer human tumor NCI-H196 cell line growth inhibition [Asc];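 further: spheroids exposed to compound for 7 days before measurement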
- applied.conditions: curve of first compound; second compound 1 µM

Q: Which IC50 is reported for this molecule? Cc1nc(N2CCC3(CC2)COC(C)C3N)c(CO)nc1Sc1ccnc(N)c1Cl (configuration not stated) + Cc1c(S(C)(=O)=O)c(-c2cc(F)cc(N3CCN(c4ccc(NS(=O)(=O)c5ccc(NC(CCN6CCC(C(=O)OCCCP(=O)(O)O)CC6)CSc6ccccc6)c(S(=O)(=O)C(F)(F)F)c5)cc4)CC3)c2)c(-c2ccc(Cl)cc2)n1C(C)C
Ans: 1150 nM

Q: Which IC50 is reported for this molecule? NC1CCC(NC2CC2c2ccccc2)CC1 (configuration not stated) + Cc1c(S(C)(=O)=O)c(-c2cc(F)cc(N3CCN(c4ccc(NS(=O)(=O)c5ccc(NC(CCN6CCC(C(=O)OCCCP(=O)(O)O)CC6)CSc6ccccc6)c(S(=O)(=O)C(F)(F)F)c5)cc4)CC3)c2)c(-c2ccc(Cl)cc2)n1C(C)C
Ans: > 100 nM

Q: Which IC50 is reported for this molecule? C=CC(=O)N1CCN(c2nc(=O)n(-c3c(C)ccnc3C(C)C)c3nc(-c4c(O)cccc4F)c(F)cc23)C(C)C1 (configuration not stated) + CNC(C)C(=O)NC1CN(S(=O)(=O)c2cccc(S(=O)(=O)N3CCC4CCC(C(=O)NC(c5ccccc5)c5ccccc5)N4C(=O)C(NC(=O)C(C)NC)C3)c2)CCC2CCC(C(=O)NC(c3ccccc3)c3ccccc3)N2C1=O
Ans: < 31.6 nM

Q: Which IC50 is reported for this molecule? CCN1C(C(=O)NC23CCC(C(=O)O)(CC2)CC3)C(c2cccc(Cl)c2F)C2(C(=O)Nc3cc(Cl)ccc32)C12CCCCC2 (configuration not stated) + Cc1c(S(C)(=O)=O)c(-c2cc(F)cc(N3CCN(c4ccc(NS(=O)(=O)c5ccc(NC(CCN6CCC(C(=O)OCCCP(=O)(O)O)CC6)CSc6ccccc6)c(S(=O)(=O)C(F)(F)F)c5)cc4)CC3)c2)c(-c2ccc(Cl)cc2)n1C(C)C
Ans: > 3000 nM

Q: Which IC50 is reported for this molecule? C#Cc1c(F)ccc2cc(O)cc(-c3ncc4c(N5CC6CCC(C5)N6)nc(OCC56CCCN5CC(F)C6)nc4c3F)c12 (configuration not stated) + CNC(C)C(=O)NC1CN(S(=O)(=O)c2cccc(S(=O)(=O)N3CCC4CCC(C(=O)NC(c5ccccc5)c5ccccc5)N4C(=O)C(NC(=O)C(C)NC)C3)c2)CCC2CCC(C(=O)NC(c3ccccc3)c3ccccc3)N2C1=O
Ans: < 31.6 nM

Q: Which IC50 is reported for this molecule? NC1CCC(NC2CC2c2ccccc2)CC1 (configuration not stated) + CNC(C)C(=O)NC1CN(S(=O)(=O)c2cccc(S(=O)(=O)N3CCC4CCC(C(=O)NC(c5ccccc5)c5ccccc5)N4C(=O)C(NC(=O)C(C)NC)C3)c2)CCC2CCC(C(=O)NC(c3ccccc3)c3ccccc3)N2C1=O
Ans: < 0.316 nM

Q: Which IC50 is reported for this molecule? CCN1C(C(=O)NC23CCC(C(=O)O)(CC2)CC3)C(c2cccc(Cl)c2F)C2(C(=O)Nc3cc(Cl)ccc32)C12CCCCC2 (configuration not stated) + CNC(C)C(=O)NC1CN(S(=O)(=O)c2cccc(S(=O)(=O)N3CCC4CCC(C(=O)NC(c5ccccc5)c5ccccc5)N4C(=O)C(NC(=O)C(C)NC)C3)c2)CCC2CCC(C(=O)NC(c3ccccc3)c3ccccc3)N2C1=O
Ans: < 9.49 nM
